Source of measurements: a melting point compilation (Tetko et al.; mined from patent text by program, amines drawn as free bases though some values may be those of a salt)

// reported melting point for each item listed
measurementType: melting point

| compound | measuredValue |
| --- | --- |
| CCCC(=O)c1cc(O)c(O)c([N+](=O)[O-])c1 | 88 to 90 °C |
| CC(=O)OC1CSC(Oc2cc(F)cnc2Cl)C(OC(C)=O)C1OC(C)=O (stereo not given) | 185 °C |
| Nc1c(Cl)ncnc1Nn1ccc2ccccc21 | 175 to 176 °C |
| COc1cc(C(=O)N2Cc3ccc(C(=O)N(C)CC(O)CO)n3Cc3ccccc32)ccc1-c1ccccc1C(F)(F)F (stereo not given) | 119 to 123 °C |
| Cc1c(NC(=O)CC(C)(C)C)c(C)c2c(c1-c1ccccc1)OCC2c1ccc(C(C)C)cc1 (stereo not given) | 178 to 182 °C |
| Cc1ccc2sc3cc(C(C)(C)[N+](=O)[O-])ccc3c(=O)c2c1 | 170 to 173 °C |
| NC(=S)c1ccc(C(=O)NCc2ccc(N3CC(C(=O)O)OC3=O)cc2)cc1 (stereo not given) | 105 to 110 °C |
| COc1ccc2c(n1)C1(CO2)C(=O)N(Cc2cnc(C(C)C)s2)c2cccc(Br)c21 (stereo not given) | 158 to 160 °C |
| CC(=O)Nn1c(=O)c(=O)[nH]c2ccccc21 | 211 to 213 °C |
| O=C(OC(c1ccccc1)c1ccccc1)[C@H](O)CCc1ccccc1 | 82 to 84 °C |

###

| compound | melting point |
| --- | --- |
| CCCCCCCCCC[C@@H]1C(=O)OC(C)=C[C@@H]1C(=O)OC | 40 to 42 °C |
| Nc1nc2ncn([C@H]3C=C[C@@H](O)C3)c2c(=O)[nH]1 (racemic) | > 310 °C |
| FC(F)c1nc2ccccc2n1-c1nc(-c2cncnc2)cc(N2CCOCC2)n1 | 209 to 211 °C |
| Fc1ccc2[nH]cc(CCCN3CCN(c4cccc(Cl)c4Cl)CC3)c2c1 | 147 to 148 °C |
| O=C(NCCN1CCN(c2cccc3c2OCC(CO)O3)CC1)c1ccc(F)cc1 (stereo not given) | 183 to 185 °C |
| CON1C(=O)CC2(CCN(C(=O)OC(C)(C)C)CC2)C1=O | 117 °C |
| N#Cc1ccnc(C2=NC(c3ccc(F)cc3)(c3ccc(F)cc3)CN2)c1 | 206 to 208 °C |
| CC1(C)Cc2cccc(OCCNCc3cncc(C4=CCCC4)c3)c2O1 | 141 °C |
| CCc1c2nc(-c3cc(S(C)(=O)=O)ccc3OCC(C)C)[nH]c(=O)c2nn1Cc1ccccn1 | 235 to 238 °C |
| O=C1c2ccc(O)cc2C(=O)N1c1ccccc1 | 116 to 118 °C |
| O=S1(=O)NCN(C2CC2)c2ccc(Br)cc21 | 178 to 179 °C |
| COc1ccc(S(=O)(=O)C(Cc2cccnc2)(CC(C)C)C(=O)NO)cc1 (stereo not given) | 78 °C |
| CCCNC(=O)n1nc(Oc2c(Cl)cc(C(F)(F)F)cc2Cl)cc1C(Cl)(Cl)Cl | 89 to 91 °C |
| CC(C)(C)NS(=O)(=O)c1c(C(Br)Br)nsc1OCC(F)(F)F | 135 to 138 °C |
| Cc1ccc(S(=O)(=O)N(C)c2ccc(Cl)cc2C(N)=S)cc1 | 180 to 182 °C |
| CCc1nc2c(C)nc(C)nc2n1-c1ccc(CCOC(=O)NS(=O)(=O)c2ccc(C)cc2)cc1 | 162 °C |
| Cc1ccc(OC2SCC(O)C(O)C2O)c(F)n1 (stereo not given) | 167 to 170 °C |
| CCNC(=O)c1c(Cl)cccc1NC(C)(C)C | 139 to 140 °C |
| COc1ccc2ccc(OS(=O)(=O)C(F)(F)F)c(-c3nnc(Cl)c4ccccc34)c2c1 | 140 °C |
| COc1ccc(CCCC(=O)Nc2c(C)c(C)c3c(c2C)C(c2ccc(C)cc2)C(C)(C)O3)cc1 (stereo not given) | 166 to 167 °C |

###

// reported melting point for each item listed

| compound | melting point |
| --- | --- |
| CCOC(=NC#N)N[C@@H]1c2cc(C#N)ccc2OC(C)(C)[C@H]1O (relative stereo) | 193 to 196 °C |
| CC(C)(C)c1ccc(-c2ccc3c(-c4ccc(C(C)(C)C)cc4)cc4c5cc(-c6ccc(C(C)(C)C)cc6)ccc5c(-c5ccc(C(C)(C)C)cc5)cc4c3c2)cc1 | 376 °C |
| Cc1ccc2c(c1)CCN1C2CC(=O)C2CCCCC21 (stereo not given) | 101 to 121 °C |
| CNC(=O)C(C)(C)CCCCC1(CCCCC(C)(C)C(=O)NC)SCCCS1 | 104 to 106 °C |
| CCC1c2cccn2-c2ccc(C(F)(F)F)cc2N1S(=O)(=O)c1ccc(OC)c(C)c1 (stereo not given) | 151 to 154 °C |
| Cn1cc(C#N)c([N+](=O)[O-])n1 | 85 to 87 °C |
| Cc1ccc(C(=O)Nc2cn(C3CCCCO3)nc2C(=O)NCCC#N)cn1 (stereo not given) | 118 to 120 °C |
| Fc1ccc(C(OCCN2CCN(C(c3ccc(F)cc3)c3ccc(F)cc3)CC2)c2ccc(F)cc2)cc1 | 87 to 88 °C |
| COc1c(Cc2ccccc2)cc(C(=O)c2cccs2)c2ccccc12 | 111 to 113 °C |
| CCCC1=C(C(=O)OCC)C(c2cccc(F)c2C)c2c[nH]nc2N1 (stereo not given) | 159 to 162 °C |
| CC(C)(C)SN1C(=O)NC(=O)C1=O | 150 to 152 °C |
| Cc1ccccc1NC(=O)C=CC=CC1(F)CC1c1ccc(Br)c(Br)c1 (stereo not given) | 174 to 176 °C |
| Cc1noc(NS(=O)(=O)c2c(Cl)sc(Cl)c2Br)c1Br | 146 to 149 °C |
| NC(=O)c1cn(CC2CC2)c2ccccc12 | 170 °C |
| CC(=O)OCCCOc1ccc([N+](=O)[O-])c(C=C2NC(=O)NC2=O)c1 | 94 to 130 °C |
| C=CC(=O)N1CC(c2ccc(Cl)cc2)Sc2ccccc21 (stereo not given) | 122 to 124 °C |
| Cc1c(F)c(N2CCC(C)(CN)C2)cc2c1c(=O)c(C(=O)O)cn2C1CC1 (stereo not given) | 250 to 252 °C |
| CCOC(=O)c1ccc(-c2ccc(OCCCN)c(-c3ccc4c(c3)C(C)(C)CCC4(C)C)c2)cc1 | 155 °C |
| COC(=O)c1c(O)c2ccccc2n1-c1ccc(OC)cc1 | 153 to 155 °C |
| Clc1ccc(CCOc2ncnc3ccccc23)cc1 | 57 to 58 °C |

###

| molecule | melting point |
| --- | --- |
| OC(CCCN1CC=C(c2ccc(Cl)cc2)CC1)c1ccc(F)cc1 (stereo not given) | 103 to 105 °C |
| O=C(c1ccc(Cn2cnc3cnccc32)cc1)N1CCOCC1 | 119 to 121 °C |
| c1ccc(Nc2ccc3nnn(Cc4ccc5ncccc5c4)c3n2)cc1 | 237 to 239 °C |
| CC(=O)OCC1Cc2c(C3=C(c4cn(C)c5ccccc45)C(=O)OC3=O)c3ccccc3n2C1 (stereo not given) | 208 to 211 °C |
| CN1CCN2C(=O)Nc3ccc(Cl)cc3C12c1ccccc1 (stereo not given) | 270 to 271 °C |
| NS(=O)(=O)c1cnc(-c2cccs2)s1 | 134 to 136 °C |
| O=C(Nc1ccccc1)O[C@@H]1CN=C(c2ccc3ccccc3c2)O[C@H]1c1ccccc1 (racemic) | 163 °C |
| CC(C)(C)[C@H]1Cn2c(nc3c(C4OCCO4)cccc32)-c2ccccc2O1 | 150 to 152 °C |
| COc1ccc2c(c1)C13CCN(C)C(C2)C1(OC)CCC(=O)C3 (stereo not given) | 152 to 156 °C |
| O=[N+]([O-])c1c(NCCO)cc(Cl)cc1NCCO | 154 °C |

###

// reported melting point for each item listed
measurementType: melting point

| compound | measuredValue |
| --- | --- |
| CC(NC1CCc2ccccc21)C(=O)O (centres undefined) | 248 to 250 °C |
| CS(=O)(=O)NC1Cc2ccc(C3=NNC(=O)CC3)cc2C1 (centres undefined) | 218 to 220 °C |
| Cn1cc(C2=C(c3cn4c5c(cccc35)CCC4CCO)C(=O)NC2=O)c2ccccc21 (centres undefined) | 214 to 215 °C |
| CCOC(=O)COc1cccc2cc(S(N)(=O)=O)sc12 | 168 °C |
| CCOCc1nc2c(N)nc3cc(OCc4ccccc4)ccc3c2n1CCCCN1CCCS1(=O)=O | 225 to 227 °C |
| CC(C)Cn1c(=O)n(C)c(=O)c2c(Sc3cccc(O)c3)n(Cc3cccc4ccccc34)cc21 | 150 to 151 °C |
| O=C(Nc1ccc(F)cc1)c1cccc(Cl)n1 | 98 °C |
| N=C(NN)c1ccccc1C(=N)NN | 251 to 253 °C |
| O=C(O)C(O)c1ccc(Cc2ccccc2)s1 (centres undefined) | 81 to 82 °C |
| COc1ccc(C#CC(O)c2cccc(CN(O)C(N)=O)c2)cc1OC (centres undefined) | 146 °C |
| CCN1CCN(c2cccc3ccc(-c4cccc(NS(C)(=O)=O)c4)cc23)CC1 | 100 to 101 °C |
| COc1c(N2CCC(NC(=O)OC(C)(C)C)C2)c(F)cc2c(=O)c(C(=O)O)cn(C3CC3)c12 (centres undefined) | 224 to 226 °C |
| O=C1CN(Cc2ccccc2)c2cc(-c3cccc(Cl)c3)ccc2N1 | 182 to 185 °C |
| Cc1ccc(C(=O)Nc2c(NC(=O)CN3CCN(c4ccccc4F)CC3)ccc3c2C(=O)c2ccccc2C3=O)cc1 | 228 to 229 °C |
| NC(=NCC(F)(F)F)Nc1ccnc(OCCCO)n1 | 118 to 120 °C |
| O=C(c1ccc(Sc2ccc(O)cc2)cc1)c1ccc(Sc2ccc(O)cc2)cc1 | 219 to 221 °C |
| Cc1nnc2c(-c3ccccc3)nccn12 | 178 to 180 °C |
| COc1cc(-c2nc(C)c(C(=O)O)s2)cc(OC)c1OC | 205 to 207 °C |
| Cc1cc(N2CCC(CC(=O)N3CCN(Cc4ccccc4)CC3)CC2)ccc1Oc1ccc(NS(=O)(=O)c2ccc(Cl)c(Cl)c2)cn1 | 151 to 155 °C |
| CCOc1ccc(CCCCC=CC(=O)O)cc1 | 62 to 63 °C |
| CC(=O)Nc1c(SC(F)(F)F)c(C#N)nn1-c1c(Cl)cc(C(F)(F)F)cc1Cl | 217 to 218 °C |
| COCS(=O)(=O)c1ccc(C=C(C)c2ccc3c(c2)C(C)(C)CCC3(C)C)cc1 | 154 to 156 °C |
| CC(C)C(=O)NC[C@H]1CN(c2ccc3c(c2)CCCc2cnn(C(=O)C(C)C)c2-3)C(=O)O1 | 75 to 80 °C |
| CC(NC(=O)Cc1cc(F)cc(F)c1)C(=O)NC1(c2ccccc2)NC(=O)Cc2ccccc21 (centres undefined) | 200 to 205 °C |
| C=CCn1c(=O)c(C(=O)OCC)c(N)c2cccnc21 | 161 to 164 °C |
| CC(=O)Nc1ccc(OC(C)(C)c2nc3ccccc3s2)cc1 | 149 to 150 °C |
| O=C1c2ccccc2C(=O)N1OCc1cccs1 | 130 to 131 °C |
| Cc1cc2cc(CN3CCCC3)cnc2cc1NC(=O)c1ccc(-c2cc3ccccc3o2)cc1 | 219 °C |
| CCOc1cc2c(cc1OCC)C(C(S)(C#N)c1ccccc1)=NCC2 (centres undefined) | 118 to 119 °C |
| CCCOC(=O)CCc1cc(S(C)(=O)=O)cc(-c2nc(=O)c3ccc(Cl)cc3s2)n1 | 235 to 236 °C |
| Cc1cc(C(=O)Nc2cccc(Oc3ccc4nc(NC(=O)CN(C)C)cn4n3)c2)n(C)n1 | 210 °C |
| COc1nn(-c2ccc(C=O)cc2)nc1Cl | 147 to 148 °C |
| CSc1cc(C)nc(SC)c1NC(=O)CCN1CCN(CCSc2nc3ccccc3o2)CC1 | 110 to 112 °C |
| CCCCc1nc2cccc(C#N)c2n1Cc1ccccc1Cl | 124 to 127 °C |
| COc1cc2c(cc1OC)N(C)C(=O)CN=C2c1ccc(Cl)c(Cl)c1 | 174 to 177 °C |
| COc1ccc(CN2C(=O)[C@@H](NC(=O)Cc3ccccc3)[C@H]2COS(=O)(=O)c2ccc(C)cc2)c(OC)c1 (relative stereo) | 109 to 110 °C |
| O=C(OCc1ccccc1)N1CCC(c2[nH]c(=O)c3ccccc3c2-c2ccccc2)CC1 | 276 to 278 °C |
| CCCN1CCC(c2cccc(C(N)=O)c2)CC1 | 182 °C |
| Cn1c(-c2ccc(C=Cc3ccc(-c4ccccc4)cc3)cc2)cc2ccccc21 | 254 °C |
